molecular target: MSI-1 RRM2-M1 (Homo sapiens, UniProt O43347 104-200, E180N); experiment: SPR; NMR: 50 mM Tris-HCl, 140 mM NaCl, 1 mM EDTA, 1 mM protease inhibitors, pH 7.2 (RRM1: pH 7.5), 298 K; fluorescence quenching: 50 mM Tris pH 7.2, 140 mM NaCl, 1 mM EDTA; SPR: biotinylated RNA immobilised, buffer not in the material; settings: protein: recombinant; label: biotin for SPR; unlabelled for NMR; hairpin
Sequence (O43347 104-200 E180N): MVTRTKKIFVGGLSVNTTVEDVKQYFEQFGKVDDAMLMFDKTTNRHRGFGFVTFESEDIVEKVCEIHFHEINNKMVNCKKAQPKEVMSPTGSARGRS
metricName: pKd
Reminder that pKd is minus the log10 of a molar concentration.

>>> print(df.to_string())
                                     binder  assayvalue
0  AAGCGUUAGUUAUUUAGUCGCUU (structured_RNA) [oligo-HP4]        7.85

Next binder, pKd to be filled in.
Identify pKd associated with the binder CACUCUGUAGUAUGUAGGGUUUAUUU (structured_RNA) [oligo-HP5]
7.84
